Kindly supply the reported log10 of GI50 values for the records listed here.
System: HL-60(TB)
Method Description: NCI 60 antitumor screening (single dose / five doses)
Format: cell-based
Conditions Used: Homo sapiens; HL-60(TB), five doses (0.01–100 μM); read-out: GI50
Please keep in mind that the values are log10 of GI50 expressed in nM.

CN(C)c1ccc(/C=N/Nc2nc(N/N=C/c3ccc(N(C)C)cc3)nc(N3CCCCC3)n2)cc1 [compound 7g] :: 3.34

Please look at the items below and tell me log10 of GI50 for each one, in order.
1. Oc1ccccc1/C=N/Nc1nc(N/N=C/c2ccccc2O)nc(N2CCOCC2)n1 [compound 6a]
2. Clc1cccc(/C=N/Nc2nc(N/N=C/c3cccc(Cl)c3)nc(N3CCOCC3)n2)c1 [compound 6d]
3. Brc1cccc(/C=N/Nc2nc(N/N=C/c3cccc(Br)c3)nc(N3CCOCC3)n2)c1 [compound 6c]
4. Fc1cccc(Cl)c1/C=N/Nc1nc(N/N=C/c2c(F)cccc2Cl)nc(N2CCCCC2)n1 [compound 7l]

A:
1: 2.28; 2: 2.70; 3: 2.18; 4: 3.30
